Tested on: MHH-CALL-2 (B-Lymphoblastic Leukemia)
assay_protocol: combination Emax (second highest fraction inhibited in the dose matrix, 72 h); higher = more inhibition; extreme values may be limits of the assay
property_name: combination Emax
Numbers only.

Below, 4 molecules whose answers are already recorded.
CC(=O)Nc1cccc(-n2c(=O)n(C3CC3)c(=O)c3c(Nc4ccc(I)cc4F)n(C)c(=O)c(C)c32)c1 [Trametinib] + Cc1nc(-c2cn3c(n2)-c2ccc(-c4cnn(C(C)(C)C(N)=O)c4)cc2OCC3)n(C(C)C)n1 [Taselisib] (first compound max 1 µM, 7x7, partner max 10 µM)    0.662
NC1(C(=O)N[C@@H](CCO)c2ccc(Cl)cc2)CCN(c2ncnc3[nH]ccc23)CC1 [Capivasertib] + CC(=O)c1c(C)c2cnc(Nc3ccc(N4CCNCC4)cn3)nc2n(C2CCCC2)c1=O [Palbociclib] (first compound max 10 µM, 7x7, partner max 10 µM)    0.216
COc1cccc(OCCCN)c1-c1cc(Nc2cnc(C#N)cn2)n[nH]1 [Prexasertib] + CCc1c2c(nc3ccc(O)cc13)-c1cc3c(c(=O)n1C2)COC(=O)[C@]3(O)CC [SN-38] (first compound max 1 µM, 7x7, partner max 0.3 µM)    1
Cc1c2c(nn1C)CSCc1cc(n(C)n1)CSc1cc(c3ccccc3c1)OCCCc1c(C(=O)O)n(C)c3c-2c(Cl)ccc13 [AZD5991] + Cn1cnc2c(F)c(Nc3ccc(Br)cc3Cl)c(C(=O)NOCCO)cc21 [Selumetinib] (first compound max 1 µM, 7x7, partner max 3 µM)    1

Return reported combination Emax values for all items listed beneath this line.
1. COc1nnc2ccc(N3CCC(c4ccc(OCCN5CCN(C)C(=O)[C@H]5C)cc4)CC3)nn12 [AZD5153] + Cn1cnc2c(F)c(Nc3ccc(Br)cc3Cl)c(C(=O)NOCCO)cc21 [Selumetinib] (first compound max 1 µM, 7x7, partner max 10 µM)
2. CC1(C)CCC(CN2CCN(c3ccc(C(=O)NS(=O)(=O)c4ccc(NCC5CCOCC5)c([N+](=O)[O-])c4)c(Oc4cnc5[nH]ccc5c4)c3)CC2)=C(c2ccc(Cl)cc2)C1 [Venetoclax] + CN(C)CCCOc1ccc(-c2ccc3ncc4c(c3c2)n(C2CCOCC2)c(=O)n4C)cn1 [AZD0156] (first compound max 1 µM, 7x7, partner max 1 µM)
3. CS(=O)(=O)CCNCc1ccc(-c2ccc3ncnc(Nc4ccc(OCc5cccc(F)c5)c(Cl)c4)c3c2)o1 [Lapatinib] + C[C@@H](Oc1cc(-c2cnn(C3CCNCC3)c2)cnc1N)c1c(Cl)ccc(F)c1Cl [Crizotinib] (first compound max 10 µM, 7x7, partner max 10 µM)

0.432
0.153
1

====

Test system: SAS (Oral Cavity Carcinoma)
assay_protocol: combination Emax (second highest fraction inhibited in the dose matrix, 72 h); higher = more inhibition; extreme values may be limits of the assay
Give combination Emax for every item shown.
Numbers only.

Cc1c2c(nn1C)CSCc1cc(n(C)n1)CSc1cc(c3ccccc3c1)OCCCc1c(C(=O)O)n(C)c3c-2c(Cl)ccc13 [AZD5991] + CC(=O)O[C@H]1C(=O)[C@@]2(C)[C@H]([C@H](OC(=O)c3ccccc3)[C@]3(O)C[C@H](OC(=O)[C@H](O)[C@@H](NC(=O)c4ccccc4)c4ccccc4)C(C)=C1C3(C)C)[C@]1(OC(C)=O)CO[C@@H]1C[C@@H]2O [Paclitaxel] (first compound max 1 µM, 7x7, partner max 3 µM)    0.66
Cc1c2c(nn1C)CSCc1cc(n(C)n1)CSc1cc(c3ccccc3c1)OCCCc1c(C(=O)O)n(C)c3c-2c(Cl)ccc13 [AZD5991] + CC1(C)CCC(CN2CCN(c3ccc(C(=O)NS(=O)(=O)c4ccc(NCC5CCOCC5)c([N+](=O)[O-])c4)c(Oc4cnc5[nH]ccc5c4)c3)CC2)=C(c2ccc(Cl)cc2)C1 [Venetoclax] (first compound max 1 µM, 7x7, partner max 1 µM)    0.184
COc1nnc2ccc(N3CCC(c4ccc(OCCN5CCN(C)C(=O)[C@H]5C)cc4)CC3)nn12 [AZD5153] + Cc1c2c(nn1C)CSCc1cc(n(C)n1)CSc1cc(c3ccccc3c1)OCCCc1c(C(=O)O)n(C)c3c-2c(Cl)ccc13 [AZD5991] (first compound max 1 µM, 7x7, partner max 1 µM)    0.823

Now consider the entry below.
Entry CC(=O)c1c(C)c2cnc(Nc3ccc(N4CCNCC4)cn3)nc2n(C2CCCC2)c1=O [Palbociclib] + CC1(C)CCC(CN2CCN(c3ccc(C(=O)NS(=O)(=O)c4ccc(NCC5CCOCC5)c([N+](=O)[O-])c4)c(Oc4cnc5[nH]ccc5c4)c3)CC2)=C(c2ccc(Cl)cc2)C1 [Venetoclax] (first compound max 10 µM, 7x7, partner max 1 µM) — recorded combination Emax = 0.47

====

Give combination Emax for every item shown.
System: LNZTA3WT4 (Low Grade Glioma)
assay_protocol: combination Emax (second highest fraction inhibited in the dose matrix, 72 h); higher = more inhibition; extreme values may be limits of the assay
One number for each entry.

Below, 2 compounds whose answers are already recorded.
CC1(C)CCC(CN2CCN(c3ccc(C(=O)NS(=O)(=O)c4ccc(NCC5CCOCC5)c([N+](=O)[O-])c4)c(Oc4cnc5[nH]ccc5c4)c3)CC2)=C(c2ccc(Cl)cc2)C1 [Venetoclax] + C[C@@H](Nc1cc(F)cc(F)c1)c1cc(C(=O)N(C)C)cc2c(=O)cc(N3CCOCC3)oc12 [AZD8186] (first compound max 1 µM, 7x7, partner max 3 µM)    0.185
CN(CCO)CC[C@H](CSc1ccccc1)Nc1ccc(S(=O)(=O)NC(=O)c2ccc(N3CCC([C@@H](O)c4ccccc4-c4ccc(Cl)cc4)CC3)cc2)cc1S(=O)(=O)C(F)(F)F [AZD4320] + CC(=O)O[C@H]1C(=O)[C@@]2(C)[C@H]([C@H](OC(=O)c3ccccc3)[C@]3(O)C[C@H](OC(=O)[C@H](O)[C@@H](NC(=O)c4ccccc4)c4ccccc4)C(C)=C1C3(C)C)[C@]1(OC(C)=O)CO[C@@H]1C[C@@H]2O [Paclitaxel] (first compound max 1 µM, 7x7, partner max 3 µM)    0.967

Now consider the entry below.
So the reported combination Emax for COc1nnc2ccc(N3CCC(c4ccc(OCCN5CCN(C)C(=O)[C@H]5C)cc4)CC3)nn12 [AZD5153] + Cn1cnc2c(F)c(Nc3ccc(Br)cc3Cl)c(C(=O)NOCCO)cc21 [Selumetinib] (first compound max 1 µM, 7x7, partner max 10 µM) , on LNZTA3WT4 (Low Grade Glioma), turned out to be 0.383

====

Give Bliss excess for every item shown.
Tested on: NCI-H209 (Small Cell Lung Carcinoma)
assay_protocol: Bliss excess, mean over the matrix (fraction); higher = more synergy

CC1(C)CCC(CN2CCN(c3ccc(C(=O)NS(=O)(=O)c4ccc(NCC5CCOCC5)c([N+](=O)[O-])c4)c(Oc4cnc5[nH]ccc5c4)c3)CC2)=C(c2ccc(Cl)cc2)C1 [Venetoclax] + C[C@@H](Nc1cc(F)cc(F)c1)c1cc(C(=O)N(C)C)cc2c(=O)cc(N3CCOCC3)oc12 [AZD8186] (first compound max 1 µM, 7x7, partner max 3 µM)    0.1
CN(CCO)CC[C@H](CSc1ccccc1)Nc1ccc(S(=O)(=O)NC(=O)c2ccc(N3CCC([C@@H](O)c4ccccc4-c4ccc(Cl)cc4)CC3)cc2)cc1S(=O)(=O)C(F)(F)F [AZD4320] + C=CCn1c(=O)c2cnc(Nc3ccc(N4CCN(C)CC4)cc3)nc2n1-c1cccc(C(C)(C)O)n1 [AZD1775] (first compound max 1 µM, partner max 1 µM)    0.0963

Now consider the entry below.
Entry CS(=O)(=O)CCNCc1ccc(-c2ccc3ncnc(Nc4ccc(OCc5cccc(F)c5)c(Cl)c4)c3c2)o1 [Lapatinib] + C[C@@H](Oc1cc(-c2cnn(C3CCNCC3)c2)cnc1N)c1c(Cl)ccc(F)c1Cl [Crizotinib] (first compound max 10 µM, 7x7, partner max 10 µM) — recorded Bliss excess = -0.003

====

Give Bliss excess for every item shown.
Tested on: SW1573 (Lung Adenocarcinoma)
assay_protocol: Bliss excess, mean over the matrix (fraction); higher = more synergy
Give bare numbers.

Below, 2 molecules whose answers are already recorded.
CC1(C)CCC(CN2CCN(c3ccc(C(=O)NS(=O)(=O)c4ccc(NCC5CCOCC5)c([N+](=O)[O-])c4)c(Oc4cnc5[nH]ccc5c4)c3)CC2)=C(c2ccc(Cl)cc2)C1 [Venetoclax] + Cn1cnc2c(F)c(Nc3ccc(Br)cc3Cl)c(C(=O)NOCCO)cc21 [Selumetinib] (first compound max 1 µM, 7x7, partner max 3 µM)    -0.0621
COc1nnc2ccc(N3CCC(c4ccc(OCCN5CCN(C)C(=O)[C@H]5C)cc4)CC3)nn12 [AZD5153] + C[C@@H]1COCCN1C2=NC(=NC(=C2)C3(CC3)[S@](=N)(=O)C)C4=C5C=CNC5=NC=C4 [AZD6738] (first compound max 1 µM, 7x7, partner max 10 µM)    0.109

Now consider the entry below.
Entry CC(=O)c1c(C)c2cnc(Nc3ccc(N4CCNCC4)cn3)nc2n(C2CCCC2)c1=O [Palbociclib] + Cc1c2c(nn1C)CSCc1cc(n(C)n1)CSc1cc(c3ccccc3c1)OCCCc1c(C(=O)O)n(C)c3c-2c(Cl)ccc13 [AZD5991] (first compound max 10 µM, 7x7, partner max 1 µM) — recorded Bliss excess = -0.0431
